# target.entity: Liver carboxylesterase 1 (Oryctolagus cuniculus)
# Sequence (P12337 whole entry): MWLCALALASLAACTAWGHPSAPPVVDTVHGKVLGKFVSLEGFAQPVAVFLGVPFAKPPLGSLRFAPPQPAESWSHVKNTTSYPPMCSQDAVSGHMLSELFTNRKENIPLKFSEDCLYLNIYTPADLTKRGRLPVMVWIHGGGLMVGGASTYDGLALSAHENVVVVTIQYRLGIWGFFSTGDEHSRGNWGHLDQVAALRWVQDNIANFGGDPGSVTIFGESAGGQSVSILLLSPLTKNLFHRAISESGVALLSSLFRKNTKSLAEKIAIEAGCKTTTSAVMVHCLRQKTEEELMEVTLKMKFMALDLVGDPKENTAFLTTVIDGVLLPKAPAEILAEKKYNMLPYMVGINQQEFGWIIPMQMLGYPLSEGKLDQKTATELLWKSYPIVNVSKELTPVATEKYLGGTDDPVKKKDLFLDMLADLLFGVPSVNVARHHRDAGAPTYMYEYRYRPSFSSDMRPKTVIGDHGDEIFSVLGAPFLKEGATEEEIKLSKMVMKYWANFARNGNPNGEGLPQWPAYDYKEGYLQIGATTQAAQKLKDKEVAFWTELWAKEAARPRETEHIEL
# protocol.notes: Inhibition constant against rabbit liver carboxylesterase (rCE) using nitrophenyl acetate (o-NPA) as substrate
Documented Ki across a set of molecules

Below: 3 molecules and their reported Ki.
O=C1C=CC(=O)C=C1 [BENZOQUINONE] ... > 100 µM
CN(C)c1ccc(C(O)C(=O)c2ccccc2)cc1 (stereo unspecified) ... > 100 µM
CC(=O)C(C)=O [BUTANEDIONE] ... > 100 µM

## Input Item OC(c1ccccc1)C(O)c1ccccc1 (stereo unspecified) : provide Ki
## Output > 100 µM

## Input Indicate the recorded Ki value for this molecule: Oc1nc2cc(Cl)c(Cl)cc2nc1O [2,3-DIHYDROXY-6,7-DICHLOROQUINOXALINE]
## Output > 100 µM

## Input Return reported Ki. Input molecule: CCC(=O)C(C)=O [2,3-PENTANEDIONE]
## Output > 100 µM

## Input Name the recorded Ki of the molecule listed here: O=C1CCCC(=O)C1
## Output > 100 µM

## Input Supply measured Ki of CC1C(=O)CCCC1=O in your reply.
## Output > 100 µM

## Input Report measured Ki; entry is O=C1CCCCC1=O
## Output > 100 µM

## Input Please indicate Ki recorded for COC(OC)(C(=O)c1ccccc1)c1ccccc1
## Output > 100 µM

## Input // Input: CC1NC(=O)C(=O)OC1C (stereo unspecified) . Output its Ki only.
## Output > 100 µM

----------
# target.entity: Liver carboxylesterase 1 (Oryctolagus cuniculus, UniProt P12337)
# Sequence (P12337 whole entry): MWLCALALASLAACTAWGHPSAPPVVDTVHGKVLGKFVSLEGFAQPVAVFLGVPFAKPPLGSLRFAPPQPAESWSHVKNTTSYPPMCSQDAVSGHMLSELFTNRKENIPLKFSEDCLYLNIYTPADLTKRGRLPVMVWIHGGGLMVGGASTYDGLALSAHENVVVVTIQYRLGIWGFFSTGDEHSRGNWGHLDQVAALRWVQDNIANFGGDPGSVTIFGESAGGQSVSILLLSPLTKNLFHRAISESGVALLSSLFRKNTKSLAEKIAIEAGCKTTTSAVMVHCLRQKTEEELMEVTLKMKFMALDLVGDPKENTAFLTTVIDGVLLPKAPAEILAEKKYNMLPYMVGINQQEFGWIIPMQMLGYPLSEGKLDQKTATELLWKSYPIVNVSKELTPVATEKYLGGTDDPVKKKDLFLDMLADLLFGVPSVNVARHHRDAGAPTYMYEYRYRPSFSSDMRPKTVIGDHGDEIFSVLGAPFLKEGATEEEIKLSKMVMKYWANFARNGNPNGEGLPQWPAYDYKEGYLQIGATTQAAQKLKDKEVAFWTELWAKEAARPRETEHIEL
# protocol.notes: Inhibition constant against rabbit liver carboxylesterase (rCE) using nitrophenyl acetate (o-NPA) as substrate
Ki by entry:
Use nM as the unit, but write only the number.

// worked examples, Ki included
O=C(CC(=O)c1ccccc1)c1ccccc1 ... 3950
O=C1C(Cl)=C(Cl)C(=O)C(Cl)=C1Cl ... 54.8

## Input Please give measured Ki of the following entry: CC(C)(C)C1=CC(=O)C(=O)C(C(C)(C)C)=C1
## Output 736
